Tested System: FAD-linked sulfhydryl oxidase ALR (Homo sapiens)
Sequence (P55789 whole entry): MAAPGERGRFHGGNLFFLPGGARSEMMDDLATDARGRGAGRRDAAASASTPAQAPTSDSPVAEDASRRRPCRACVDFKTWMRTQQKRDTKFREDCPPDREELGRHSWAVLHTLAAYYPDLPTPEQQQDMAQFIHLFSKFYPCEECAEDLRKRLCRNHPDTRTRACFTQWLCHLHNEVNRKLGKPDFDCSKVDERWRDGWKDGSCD
Method Notes: inhibitors of human ALR sulfhydryl oxidase, dose response, biochemical, H2O2 detection, luminescence, cherry-pick (AID 493248)
The source made the active and inactive calls.
Hi there, I'd appreciate the recorded AC50 for every entry that follows.

INPUT: // query AC50 value for entry O=C(CCN1CCCCCC1)c1ccccc1
OUTPUT: 5.85 µM (active)

INPUT: // query AC50 value for entry O=C(O)CN1C(=O)/C(=C\c2cccc(OCc3ccccc3)c2)SC1=S
OUTPUT: 4.52 µM (active)

INPUT: // query AC50 value for entry Cc1ccc2nc(C)cc(N/N=C/c3ccccc3O)c2c1
OUTPUT: 4.03 µM (active)

---

Tested System: Replicative DNA helicase DnaB (Mycobacterium tuberculosis)
Sequence (P9WMR3 1-399, added parts left off): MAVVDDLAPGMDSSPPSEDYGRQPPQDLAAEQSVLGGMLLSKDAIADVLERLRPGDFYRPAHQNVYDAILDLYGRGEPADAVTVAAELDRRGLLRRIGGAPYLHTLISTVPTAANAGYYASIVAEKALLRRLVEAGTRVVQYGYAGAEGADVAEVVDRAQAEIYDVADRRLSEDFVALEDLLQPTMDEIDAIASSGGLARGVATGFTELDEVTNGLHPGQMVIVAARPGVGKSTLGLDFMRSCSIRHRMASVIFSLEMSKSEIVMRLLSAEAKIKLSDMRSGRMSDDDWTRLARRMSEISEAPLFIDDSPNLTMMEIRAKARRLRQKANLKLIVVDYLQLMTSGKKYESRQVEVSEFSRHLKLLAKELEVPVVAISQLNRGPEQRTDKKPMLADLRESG
Method Notes: DnaB intein splicing inhibitors, dose response, biochemical, cell-free fluorescence (AID 449749)
Type: functional
Activity calls are given as the source filed them.
Please answer using one outcome listed in YES (active), NO (inactive)

INPUT: // param item: Fc1ccc(Nc2nc(NCc3ccco3)c3ccccc3n2)cc1 ; yields the recorded call
OUTPUT: YES

INPUT: // param item: COc1ccc(/C=C/C(=O)c2ccccc2)cc1COc1ccc(F)cc1 ; yields the recorded call
OUTPUT: YES

INPUT: // param item: COc1cc(-c2[nH]nc3c2C(c2ccco2)C(C#N)=C(N)O3)cc(OC)c1OC (stereo unspecified) ; yields the recorded call
OUTPUT: YES

INPUT: // param item: N#C/C(=C\c1c(F)cccc1Cl)c1nn(-c2ccccc2)c(-n2cccc2)c1C#N ; yields the recorded call
OUTPUT: YES

INPUT: // param item: COc1ccc(C2NC(c3ccc(OC)cc3OC)C(C)C(=O)C2C)c(OC)c1 (stereo unspecified) ; yields the recorded call
OUTPUT: NO

INPUT: // param item: CC(Nc1c[nH]c(=O)[nH]c1=O)c1ccccc1 (stereo unspecified) ; yields the recorded call
OUTPUT: YES

---

Tested System: Kappa-type opioid receptor (Homo sapiens)
Sequence (P41145 whole entry): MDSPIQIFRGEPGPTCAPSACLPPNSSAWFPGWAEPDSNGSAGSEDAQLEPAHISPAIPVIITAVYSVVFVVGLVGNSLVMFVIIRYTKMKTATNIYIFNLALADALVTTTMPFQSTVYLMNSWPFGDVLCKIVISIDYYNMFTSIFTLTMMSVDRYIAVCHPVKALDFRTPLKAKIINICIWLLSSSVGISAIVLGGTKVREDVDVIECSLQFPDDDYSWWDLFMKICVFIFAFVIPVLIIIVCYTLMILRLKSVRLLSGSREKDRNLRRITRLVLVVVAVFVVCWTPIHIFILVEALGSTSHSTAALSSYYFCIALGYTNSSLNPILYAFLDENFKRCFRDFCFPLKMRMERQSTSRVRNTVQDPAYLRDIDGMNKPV
Assay type: functional
Property: pEC50
In textbook form, pEC50 equals minus log to base ten of the concentration in mol/L.

INPUT: // query pEC50 value for entry CCC(C)(C(=O)NC1CCCC1)N(Cc1ccco1)C(=O)c1ccccn1 (stereo unspecified)
OUTPUT: 5.04

---

Hi there, I'd appreciate the recorded AC50 for every entry that follows.
Tested System: UniProt:O75030
Sequence (O75030 whole entry): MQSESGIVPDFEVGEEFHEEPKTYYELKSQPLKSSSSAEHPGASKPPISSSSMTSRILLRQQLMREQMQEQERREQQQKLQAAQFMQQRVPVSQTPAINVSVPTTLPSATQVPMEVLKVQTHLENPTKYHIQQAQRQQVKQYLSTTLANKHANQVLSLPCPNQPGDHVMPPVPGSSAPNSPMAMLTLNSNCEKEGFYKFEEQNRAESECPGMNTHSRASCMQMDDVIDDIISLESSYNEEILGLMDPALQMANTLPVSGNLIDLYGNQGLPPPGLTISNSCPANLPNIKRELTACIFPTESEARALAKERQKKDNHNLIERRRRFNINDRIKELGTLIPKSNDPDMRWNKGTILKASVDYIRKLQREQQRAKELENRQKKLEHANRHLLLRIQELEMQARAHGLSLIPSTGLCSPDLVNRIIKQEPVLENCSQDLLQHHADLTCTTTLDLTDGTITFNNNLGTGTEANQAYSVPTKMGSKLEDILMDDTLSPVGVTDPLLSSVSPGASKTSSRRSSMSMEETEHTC
Method Notes: TRPM1 promoter luciferase signal decrease, dose response, MITF inhibitor project, cell-based, SK-MEL-5, cherry-picked, set 3 (AID 493073);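 further: SK-MEL-5 melanoma cells with luciferase driven by the MITF target TRPM1 promoter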
Type: functional
Activity calls are given as the source filed them.

INPUT: // query AC50 value for entry CC(Oc1ccc(F)cc1)C(=O)Nc1nc(-c2ccccn2)cs1 (stereo not given)
OUTPUT: 9.42 µM (active)

INPUT: // query AC50 value for entry COc1cccc(C(=O)N/N=C(/c2ccccc2)c2ccccn2)c1
OUTPUT: 5.8 µM (active)

INPUT: // query AC50 value for entry Nc1ccc(-c2nc3c(Cl)cc(N)cc3[nH]2)cc1
OUTPUT: 3.76 µM (active)

INPUT: // query AC50 value for entry CC(=O)c1ccc(S(=O)(=O)N2CCN(C(=O)/C=C/c3ccc4ccccc4n3)CC2)cc1
OUTPUT: 12 µM (active)

INPUT: // query AC50 value for entry CCOc1cc(/C=C(/C#N)c2ccc(Cl)cc2)cc(Cl)c1OCC(=O)O
OUTPUT: 5.61 µM (active)

INPUT: // query AC50 value for entry CC1CC(C)CN(C(=O)/C=C/c2ccc([N+](=O)[O-])s2)C1 (stereo not given)
OUTPUT: 11.9 µM (active)

INPUT: // query AC50 value for entry Cc1ccc(C#CC[N+]2(CC#Cc3ccc(C)cc3)CCCCC2)cc1
OUTPUT: 3.95 µM (active)

INPUT: // query AC50 value for entry O=C(CNC(=O)c1ccccc1)N/N=C/c1ccc([N+](=O)[O-])s1
OUTPUT: 5.34 µM (active)

INPUT: // query AC50 value for entry COc1ccc(C(CCNC(C)c2ccccc2)c2ccc(F)cc2)cc1 (stereo not given)
OUTPUT: 16.6 µM (active)

INPUT: // query AC50 value for entry Cc1c(NC(=O)C(C)OC(=O)c2ccc([N+](=O)[O-])s2)c(=O)n(-c2ccccc2)n1C (stereo not given)
OUTPUT: 34.1 µM (active)

Where do these numbers come from? They come from ChEMBL document CHEMBL1201862.
